tested system: STAT3 (Homo sapiens)
Construct: endogenous in cells; host or cells: MOLM-16 (acute leukemia cells)
Sequence (P40763 whole entry): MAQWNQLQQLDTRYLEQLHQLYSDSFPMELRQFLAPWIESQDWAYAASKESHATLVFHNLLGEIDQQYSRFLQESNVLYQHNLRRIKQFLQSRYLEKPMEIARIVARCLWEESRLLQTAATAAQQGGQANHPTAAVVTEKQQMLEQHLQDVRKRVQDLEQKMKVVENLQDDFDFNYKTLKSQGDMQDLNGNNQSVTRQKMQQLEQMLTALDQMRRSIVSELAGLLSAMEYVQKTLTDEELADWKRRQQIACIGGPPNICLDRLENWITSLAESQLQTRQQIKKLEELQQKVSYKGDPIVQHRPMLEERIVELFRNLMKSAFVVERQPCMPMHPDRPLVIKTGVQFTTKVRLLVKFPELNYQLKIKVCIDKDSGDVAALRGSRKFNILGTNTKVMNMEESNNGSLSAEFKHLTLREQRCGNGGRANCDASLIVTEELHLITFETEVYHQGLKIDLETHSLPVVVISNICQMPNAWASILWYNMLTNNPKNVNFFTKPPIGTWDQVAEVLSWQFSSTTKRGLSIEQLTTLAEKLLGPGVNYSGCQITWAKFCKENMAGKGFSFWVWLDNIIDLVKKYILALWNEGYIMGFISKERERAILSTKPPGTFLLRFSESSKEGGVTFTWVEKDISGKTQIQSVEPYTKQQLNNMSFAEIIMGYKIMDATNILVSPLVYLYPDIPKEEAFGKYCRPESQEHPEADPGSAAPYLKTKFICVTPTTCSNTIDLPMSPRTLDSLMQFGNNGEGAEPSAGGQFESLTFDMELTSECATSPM
measurement protocol: Fluorescent immunoblotting of STAT3 protein in MOLM-16 cells (estimated DC50)
Type: cell-based
test parameters: MOLM-16, 4 h
Excerpt: In vitro cultured cells or xenograft tumors were lysed 1×Cell Lysis Buffer (Cell Signaling Technology, #9803), resolved by SDS-PAGE NuPAGE gel (Thermo Fisher Scientific), and transferred to a PVDF membrane (Bio Rad). […] The intensity of Western blot signaling was quantitated using the Odyssey software or Image Studio V5.2 (LI-COR).

molecule	tested system	DC50, µM
NC(=O)CC[C@H](NC(=O)[C@@H]1CC[C@@H]2CCN(C(=O)CCCCCC#Cc3cccc4c3CN(C3CCC(=O)NC3=O)C4=O)C[C@H](NC(=O)c3cc4cc(C(F)(F)P(=O)(O)O)ccc4s3)C(=O)N21)c1ncc(-c2ccccc2)s1 (stereo partly shown)	STAT3 (Homo sapiens)	0.1
NC(=O)OC[C@H](NC(=O)[C@@H]1CC[C@@H]2CCN(C(=O)CCCCCC#Cc3cccc4c3CN(C3CCC(=O)NC3=O)C4=O)C[C@H](NC(=O)c3cc4cc(C(F)(F)P(=O)(O)O)ccc4s3)C(=O)N21)c1ncc(-c2ccccc2)s1 (stereo partly shown)	STAT3 (Homo sapiens)	0.1
CCN1CC[C@H]2CC[C@@H](C(=O)N[C@@H](CCn3ccnc3)C(=O)N[C@@H](Cc3ccc(C(C)(C)C)cc3)C(=O)N3CCC(CCC#Cc4cccc5c4CN(C4CCC(=O)NC4=O)C5=O)CC3)N2C(=O)[C@@H](NC(=O)c2cc3cc(C(F)(F)P(=O)(O)O)ccc3s2)C1 (stereo partly shown)	STAT3 (Homo sapiens)	0.25
NC(=O)CC[C@H](NC(=O)[C@@H]1CC[C@@H]2CCN(C(=O)CCCCCC#Cc3cccc4c3CN(C3CCC(=O)NC3=O)C4=O)C[C@H](NC(=O)c3cc4cc(C(F)(F)P(=O)(O)O)ccc4s3)C(=O)N21)c1nc(Cc2ccccc2)cs1 (stereo partly shown)	STAT3 (Homo sapiens)	0.1

----------
tested system: STAT1 (Homo sapiens, UniProt P42224)
Construct: endogenous in cells; host or cells: MOLM-16 (acute leukemia cells)
Sequence (P42224 whole entry): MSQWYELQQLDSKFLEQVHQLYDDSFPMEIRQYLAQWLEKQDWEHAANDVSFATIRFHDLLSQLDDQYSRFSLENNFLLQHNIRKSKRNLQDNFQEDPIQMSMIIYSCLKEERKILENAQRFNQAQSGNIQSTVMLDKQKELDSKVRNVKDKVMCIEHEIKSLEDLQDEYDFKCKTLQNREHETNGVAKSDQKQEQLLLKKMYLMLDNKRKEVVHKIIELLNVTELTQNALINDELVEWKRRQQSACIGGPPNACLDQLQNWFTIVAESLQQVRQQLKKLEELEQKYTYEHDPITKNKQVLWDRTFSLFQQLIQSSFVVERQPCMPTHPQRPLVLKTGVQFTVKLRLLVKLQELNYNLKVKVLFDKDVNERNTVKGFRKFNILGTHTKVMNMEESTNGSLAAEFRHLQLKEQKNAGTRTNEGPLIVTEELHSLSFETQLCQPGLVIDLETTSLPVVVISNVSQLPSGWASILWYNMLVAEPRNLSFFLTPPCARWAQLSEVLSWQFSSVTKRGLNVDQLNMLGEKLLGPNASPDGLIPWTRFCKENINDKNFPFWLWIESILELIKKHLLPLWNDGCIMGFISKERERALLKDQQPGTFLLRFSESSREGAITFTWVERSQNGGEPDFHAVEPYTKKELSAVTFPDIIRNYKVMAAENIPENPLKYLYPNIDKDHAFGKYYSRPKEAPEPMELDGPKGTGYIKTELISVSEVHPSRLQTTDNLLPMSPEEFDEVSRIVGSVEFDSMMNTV
measurement protocol: Fluorescent immunoblotting of STAT1 protein in MOLM-16 cells (estimated DC50)
Format: cell-based
test parameters: MOLM-16, 4 h
Source text: In vitro cultured cells or xenograft tumors were lysed 1×Cell Lysis Buffer (Cell Signaling Technology, #9803), resolved by SDS-PAGE NuPAGE gel (Thermo Fisher Scientific), and transferred to a PVDF membrane (Bio Rad). […] The intensity of Western blot signaling was quantitated using the Odyssey software or Image Studio V5.2 (LI-COR).
metric: DC50

compound	test result
CCN1CC[C@H]2CC[C@@H](C(=O)N[C@@H](CCS(C)(=O)=O)C(=O)N[C@@H](Cc3ccc(C(C)(C)C)cc3)C(=O)N3CCC(CCC#Cc4cccc5c4CN(C4CCC(=O)NC4=O)C5=O)CC3)N2C(=O)[C@@H](NC(=O)c2cc3cc(C(F)(F)P(=O)(O)O)ccc3s2)C1 (some centres unmarked) [Cpd. No. 18]	> 1 µM
CCN1CC[C@H]2CC[C@@H](C(=O)N[C@@H](CCn3ccnc3[N+](=O)[O-])C(=O)N[C@@H](Cc3ccc(C(C)(C)C)cc3)C(=O)N3CCC(CCC#Cc4cccc5c4CN(C4CCC(=O)NC4=O)C5=O)CC3)N2C(=O)[C@@H](NC(=O)c2cc3cc(C(F)(F)P(=O)(O)O)ccc3s2)C1 (some centres unmarked) [Cpd. No. 21]	> 1 µM
